Test: Pharmacokinetic experiment in rats
Format: in vivo, Sprague-Dawley rats
Settings: male, Sprague-Dawley, plasma; rat, PO 10 mg/kg; read-out: MRTINF_pred
Experimental: 6 male Sprague-Dawley rats (7-8 weeks old, and weighing approximately 210 g) were divided into 2 groups with 3 rats in each group. […] Immediately after the collection of the blood sample, the test tube was gently inverted at least 5 times to ensure sufficient mixing and then placed on ice. […] The concentration of the compound of the present disclosure in plasma was determined by LC-MS/MS. […]
property: MRT inf (h)

C[C@H]1Nc2ccn3ncc(c3n2)NC(=O)CCOc2ccc(F)cc21 [Compound T-1] = 6.23

P = O=C1CCOc2ccc(F)cc2[C@H]2CCCN2c2ccn3ncc(c3n2)N1 [Compound L-1-A]
Q = C[C@H]1CC(=O)Nc2cnn3ccc(nc23)N2CCC[C@@H]2c2cc(F)ccc2O1 [Compound L-2-A]
Lookup: Would you kindly point out which of P and Q has the smaller MRT inf figure? Answer with the label corresponding to your selection.
Found: Q
(Q: 2.8 h, P: 4.9 h)

----------
Target: TRKB kinase (Homo sapiens, UniProt Q16620)
Sequence (Q16620 32-822): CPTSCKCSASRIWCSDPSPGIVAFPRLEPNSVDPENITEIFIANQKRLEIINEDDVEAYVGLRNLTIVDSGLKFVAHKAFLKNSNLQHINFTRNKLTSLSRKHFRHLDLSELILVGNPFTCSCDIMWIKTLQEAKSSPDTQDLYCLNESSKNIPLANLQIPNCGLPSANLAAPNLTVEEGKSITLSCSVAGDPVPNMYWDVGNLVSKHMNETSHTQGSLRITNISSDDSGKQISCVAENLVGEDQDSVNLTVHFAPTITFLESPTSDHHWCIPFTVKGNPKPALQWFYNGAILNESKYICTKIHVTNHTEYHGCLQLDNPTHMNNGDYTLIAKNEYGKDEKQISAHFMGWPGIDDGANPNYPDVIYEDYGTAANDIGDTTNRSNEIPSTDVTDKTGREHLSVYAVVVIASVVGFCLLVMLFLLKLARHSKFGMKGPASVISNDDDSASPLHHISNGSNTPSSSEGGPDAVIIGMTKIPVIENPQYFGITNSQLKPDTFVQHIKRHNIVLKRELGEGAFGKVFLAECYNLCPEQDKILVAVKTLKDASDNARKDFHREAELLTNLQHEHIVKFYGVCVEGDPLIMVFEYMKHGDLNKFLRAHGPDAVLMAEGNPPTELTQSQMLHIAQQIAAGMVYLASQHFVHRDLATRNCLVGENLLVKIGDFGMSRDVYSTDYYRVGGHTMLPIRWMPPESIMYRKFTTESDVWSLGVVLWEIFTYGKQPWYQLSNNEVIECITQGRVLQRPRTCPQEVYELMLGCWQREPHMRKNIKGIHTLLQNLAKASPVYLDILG
Assay: Biochemical kinase analysis (HTRF), TRKB
Settings: 23° C., read-out: Kinase IC50 (nM) TRK B
Experimental: Inhibition of TRKA, TRKB, TRKC kinases can be measured by HTRF ([…]) method. The reaction was performed in a 384-well plate at 23° C. with a volume of 20 μL. […] After that, in accordance with four-factors function and Graphpad 5.0 software, inhibitory activity on enzyme activity under different concentrations of compounds was fitted and IC50 values were calculated.
property: IC50 (nM)

C[C@@H]1Nc2ccn3ncc(c3n2)NC(=O)C[C@H](C)Oc2ccc(F)cc21 = 0.09
C[C@H]1CC(=O)Nc2cnn3ccc(nc23)N2CCC[C@H]2c2cc(F)ccc2O1 = 0.13
C[C@H]1CC(=O)Nc2cnn3ccc(nc23)N[C@H](C)c2cc(F)ccc2O1 = 0.1

----------
biological target: TRKC kinase (Homo sapiens, UniProt Q16288); experiment: Biochemical kinase analysis (HTRF), TRKC; conditions: 23° C., read-out: Kinase IC50 (nM) TRK C
Sequence (Q16288 32-839): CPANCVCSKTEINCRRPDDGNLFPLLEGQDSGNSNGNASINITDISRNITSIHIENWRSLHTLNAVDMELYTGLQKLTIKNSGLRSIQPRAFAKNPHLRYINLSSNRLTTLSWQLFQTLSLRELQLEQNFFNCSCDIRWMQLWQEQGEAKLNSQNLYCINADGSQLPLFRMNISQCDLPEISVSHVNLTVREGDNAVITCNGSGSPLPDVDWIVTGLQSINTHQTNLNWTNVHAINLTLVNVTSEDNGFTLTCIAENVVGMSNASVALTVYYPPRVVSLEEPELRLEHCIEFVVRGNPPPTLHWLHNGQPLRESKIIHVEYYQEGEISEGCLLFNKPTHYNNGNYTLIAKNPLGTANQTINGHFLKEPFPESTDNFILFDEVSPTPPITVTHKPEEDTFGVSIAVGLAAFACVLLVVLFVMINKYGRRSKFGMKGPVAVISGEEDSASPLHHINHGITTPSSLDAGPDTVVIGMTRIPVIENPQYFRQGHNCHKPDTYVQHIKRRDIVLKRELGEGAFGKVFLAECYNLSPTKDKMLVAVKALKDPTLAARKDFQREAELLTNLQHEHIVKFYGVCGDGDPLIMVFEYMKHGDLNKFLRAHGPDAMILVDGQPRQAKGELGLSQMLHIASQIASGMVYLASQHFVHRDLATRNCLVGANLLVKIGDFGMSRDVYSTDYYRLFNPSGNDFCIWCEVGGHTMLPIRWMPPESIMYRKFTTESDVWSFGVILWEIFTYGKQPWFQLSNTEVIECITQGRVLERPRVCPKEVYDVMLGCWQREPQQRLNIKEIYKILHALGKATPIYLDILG
property: IC50 (nM)

O=C1CCOc2ccc(F)cc2C2CCCN2c2ccn3ncc(c3n2)N1 (racemic) [Compound 9a] = 0.1
C[C@H]1CC(=O)Nc2cnn3ccc(nc23)N2CCC[C@@H]2c2cc(F)ccc2O1 [Compound L-2-A] = 0.1

Values were extracted from patent US11358973B2.
